Target: T1, IL10Rα and IL2Rγ on human primary cells (CD8 T cells, CD4 T cells, monocytes) (human) (UniProt Q13651)
T1 sequence (looked up) 1: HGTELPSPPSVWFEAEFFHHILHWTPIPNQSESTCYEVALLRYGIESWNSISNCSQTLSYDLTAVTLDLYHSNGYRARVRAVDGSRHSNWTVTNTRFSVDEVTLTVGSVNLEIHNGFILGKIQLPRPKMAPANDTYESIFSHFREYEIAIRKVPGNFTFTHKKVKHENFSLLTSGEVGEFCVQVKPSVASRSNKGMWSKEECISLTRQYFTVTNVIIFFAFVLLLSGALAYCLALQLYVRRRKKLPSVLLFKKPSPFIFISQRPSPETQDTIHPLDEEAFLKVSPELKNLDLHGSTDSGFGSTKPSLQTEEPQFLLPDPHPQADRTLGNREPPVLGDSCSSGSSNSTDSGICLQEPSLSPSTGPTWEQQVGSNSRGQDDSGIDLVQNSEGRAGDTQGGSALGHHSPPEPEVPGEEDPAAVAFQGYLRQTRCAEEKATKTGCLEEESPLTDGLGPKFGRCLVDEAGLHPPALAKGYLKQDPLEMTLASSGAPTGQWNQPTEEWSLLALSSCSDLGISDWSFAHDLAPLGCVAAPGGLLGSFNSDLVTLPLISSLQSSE
T1 sequence (looked up) 2: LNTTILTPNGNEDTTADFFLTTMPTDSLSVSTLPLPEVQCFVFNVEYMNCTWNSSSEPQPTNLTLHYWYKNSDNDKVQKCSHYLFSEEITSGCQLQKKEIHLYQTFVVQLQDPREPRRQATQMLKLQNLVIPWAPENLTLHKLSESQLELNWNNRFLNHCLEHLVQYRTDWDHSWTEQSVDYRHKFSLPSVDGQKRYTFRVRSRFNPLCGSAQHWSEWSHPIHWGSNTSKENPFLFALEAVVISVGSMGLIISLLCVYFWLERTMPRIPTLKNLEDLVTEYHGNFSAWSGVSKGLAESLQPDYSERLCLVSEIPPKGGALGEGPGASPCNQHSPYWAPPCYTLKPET
Assay: cell-based or functional assay

binder	pSTAT3 (MFI) in monocytes at 100 µM
hIL10Ra_VHH14-hIL2Rg_VHH19, linker GGGS, tag Fc (Fc fusion, not shown: a dimerising Fc or GST) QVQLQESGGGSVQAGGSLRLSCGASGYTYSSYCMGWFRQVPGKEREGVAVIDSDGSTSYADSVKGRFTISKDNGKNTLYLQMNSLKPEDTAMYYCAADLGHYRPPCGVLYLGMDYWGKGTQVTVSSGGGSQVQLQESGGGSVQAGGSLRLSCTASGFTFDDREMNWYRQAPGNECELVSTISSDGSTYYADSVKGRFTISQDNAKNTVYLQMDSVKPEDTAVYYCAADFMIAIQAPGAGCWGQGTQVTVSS	6030

Value source: patent US20250163162A1
